Sourced from patent US20040018983A1

# C. albicans MIC + 200 μg/ml cysteine per entry
Test system: C. albicans
method-notes: Fungal susceptibility to zinc finger selective antifungals: broth microdilution growth inhibition (OD 405 nm), with and without a zinc finger blocking compound
Type: cell-based, Candida albicans
run-conditions: with 200 μg/ml cysteine as zinc finger blocking compound
Please respond with the number in µg/mL and leave the unit unwritten.

Check out these entries, answers already filled in.
compound	C. albicans MIC + 200 μg/ml cysteine [µg/mL]
c1csc(SSc2cccs2)c1 [Compound 6, di(2-thienyl)disulphide]	16
Cc1ccccc1N=O	16
O=Nc1ccc(Nc2ccccc2)cc1	16

Next compound, please.
Could you share which C. albicans MIC + 200 μg/ml cysteine value was measured for "O=Nc1ccc2oc(=O)ccc2c1" ?
16
